target_desc: T1, recombinant human IL-19 (human, UniProt Q9UHD0 25-177)
T1 construct: also called human IL-19 recombinant protein; interleukin-19
T1 sequence: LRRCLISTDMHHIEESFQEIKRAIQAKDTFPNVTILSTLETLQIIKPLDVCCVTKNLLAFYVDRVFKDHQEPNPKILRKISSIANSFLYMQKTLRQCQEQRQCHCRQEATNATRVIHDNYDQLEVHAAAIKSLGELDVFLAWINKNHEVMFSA
procedure_summary: BLI (Octet Red96), antibody on AMQ biosensor, IL-19 in solution, 25 C, 1:1 fit
experimental_readout: Kd

>>> endpoint_result("murine derived IL-19 Ab 2 (M_2) (antibody, mouse IgG1, kappa, V domains shown) VH: LVQLQQSDAELVKPGASLKISCKVSGYTFTDHALHWMKQRPEQGLEWIGYIYPRDGSTKYNEKFKGKATLTADRSSSTAYMELNSLTSEDSAVYFCARGWDFAMDYWGQGTSVTVSS VL: DIVLTQSPESLAVSLGQRATISCRASESVDNYGISFIHWYQQKPGQPPKLLIYRASNLKSGIPARFSGRGSRTDFTLTINPVETDDVATYYCQQINKDPLTFGAGTKLELKR")
"2.9 nM"
>>> endpoint_result("murine derived IL-19 Ab 5 (M_5) (antibody, mouse IgG1, kappa, V domains shown) VH: EVQLQQSGPVLVKPGASVKMSCKASGYPFNDYFLGWVKQSHGKSLEWIGSINPDNDYTMSNQKFKGKATLTVDKSSSTAYMELNSLTSEDSAVYYCARYDYDWAWFAHWGQGTLVTVSA VL: DIVMTQSPSSLAMSVGQKVTMSCKSSQSLLSSYNQKNYLAWYQRKPGQSPKLLVYFASQRATGVPDRFIGSGSGSDFTLTISSVQAEDLADYFCQQHTRLPITFGAGTKLELKR")
"0.0521 nM"
>>> endpoint_result("rabbit derived IL-19 Ab 2 (R_2) (antibody, V domains shown) VH: QQLEESGGGLVQPEGSLTLTCTASGFSFSSSYWICWVRQAPGKGLEWLACIDTGVSGDTYYANWAKGRFTISKTSSTTVTLQMTSLTAADTATYFCARDIFGSAIDNSLWGPGTLVTVSS VL: DVVMTQTPASVEAAVGGTVTIKCQASESIGNALAWYQQKPGQPPKLLIYDASKLASGVPSRFKGSGSGTQFTLTISDLECADAATYYCQCHYHGSSYWDNSFGGGTEVVVK")
"0.103 nM"

Recorded values, source patent US20230220062A1.
